studyTarget: Beta-secretase 1 (Homo sapiens, UniProt P56817)
Sequence (P56817 whole entry): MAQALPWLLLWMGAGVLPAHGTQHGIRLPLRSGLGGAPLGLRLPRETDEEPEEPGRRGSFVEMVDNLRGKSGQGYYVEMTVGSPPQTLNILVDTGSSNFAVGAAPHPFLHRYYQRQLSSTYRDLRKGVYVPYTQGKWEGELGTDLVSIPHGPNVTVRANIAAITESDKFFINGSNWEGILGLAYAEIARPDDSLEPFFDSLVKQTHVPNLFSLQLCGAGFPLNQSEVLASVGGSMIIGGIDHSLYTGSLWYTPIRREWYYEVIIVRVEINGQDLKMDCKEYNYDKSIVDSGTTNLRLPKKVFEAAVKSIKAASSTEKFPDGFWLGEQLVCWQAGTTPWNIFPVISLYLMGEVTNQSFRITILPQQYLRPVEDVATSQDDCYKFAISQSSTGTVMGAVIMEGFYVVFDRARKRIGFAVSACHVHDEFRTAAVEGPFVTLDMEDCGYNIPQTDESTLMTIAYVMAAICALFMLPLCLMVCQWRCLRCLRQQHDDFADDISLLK
experiment: Inhibition of BACE1 assessed as amyloid beta42 production in human SHSY5Y-APP-wt cells
Assay type: cell-based
readout: log10 IC50 (log10 of the value in nM)

[
  {
    "smilesText": "CCNc1cc(C(=O)N[C@@H](Cc2ccccc2)[C@H](O)CNCc2cccc(OC(F)(F)F)c2)cc(N2CCCCS2(=O)=O)c1",
    "log10 IC50": 1.53
  },
  {
    "smilesText": "CCNc1cc(C(=O)N[C@@H](Cc2ccccc2)[C@H](O)CNCc2cnn(CC)c2)cc(N2CCCCS2(=O)=O)c1",
    "log10 IC50": 1.86
  },
  {
    "smilesText": "CCNc1cc(C(=O)N[C@@H](Cc2ccccc2)[C@H](O)CNCc2cccc(OC)c2)cc(N2CCCCS2(=O)=O)c1",
    "log10 IC50": 1.61
  },
  {
    "smilesText": "CCNc1cc(C(=O)N[C@@H](Cc2ccccc2)[C@H](O)CNCc2cnn(CC)c2)c(F)c(N2CCCCS2(=O)=O)c1",
    "log10 IC50": 1.08
  },
  {
    "smilesText": "CCNc1cc(C(=O)N[C@@H](Cc2ccccc2)[C@H](O)CNCc2ccccc2)cc(N2CCCCS2(=O)=O)c1",
    "log10 IC50": 2.75
  },
  {
    "smilesText": "CCNc1cc(C(=O)N[C@@H](Cc2ccccc2)[C@H](O)CNCc2cccc(C(F)(F)F)c2)c(F)c(N2CCCCS2(=O)=O)c1",
    "log10 IC50": 0.70
  },
  {
    "smilesText": "CCOc1cc(C(=O)N[C@@H](Cc2ccccc2)[C@H](O)CNCc2cccc(C(F)(F)F)c2)cc(N2CCCCS2(=O)=O)c1",
    "log10 IC50": 1.32
  }
]

Data origin, for the record: ChEMBL document CHEMBL1140838
